Experimental System: HLA-A*0202 (Homo sapiens, UniProt P04439, D140Y/D185E/D98H/E176V/E277Q/G131W/G231S/I119L/I121R/I166T/I218V/L180W/L300P/L318F/N151K/N90K/P208A/P217A/Q67R/Q86G/Q94H/R138H/R169H/T345S)
Test Description: MHC-peptide binding assay
Residues, ends and D or L forms follow the SMILES beside them.
Reported Property: pIC50
Answers are plain numbers, as −log10 of the molar value.

# annotated cases, reported pIC50 shown
CC[C@H](C)[C@H](NC(=O)[C@H](Cc1ccc(O)cc1)NC(=O)[C@H](CC(=O)O)NC(=O)[C@@H](NC(=O)[C@H](CC(C)C)NC(=O)[C@@H](N)Cc1ccccc1)[C@@H](C)O)C(=O)N1CCC[C@H]1C(=O)NCC(=O)N[C@@H](C)C(=O)O [SAG3_136–144] (H-FLTDYIPGA-OH)	8.15
CC[C@H](C)[C@H](N)C(=O)N[C@H](C(=O)N[C@@H](CCSC)C(=O)NCC(=O)N[C@@H](CO)C(=O)N[C@@H](CC(C)C)C(=O)N[C@@H](Cc1ccccc1)C(=O)N[C@@H](Cc1ccccc1)C(=O)N[C@H](C(=O)O)C(C)C)[C@@H](C)O [SPA12–20] (H-ITMGSLFFV-OH)	9.19

Next, consider the following compound.
Briefly, pIC50 measured for CC[C@H](C)[C@H](NC(=O)[C@H](CO)NC(=O)[C@@H](NC(=O)[C@@H](NC(=O)[C@H](CCSC)NC(=O)[C@@H](N)Cc1ccccc1)[C@@H](C)CC)C(C)C)C(=O)N[C@@H](CO)C(=O)N[C@@H](CC(C)C)C(=O)N[C@H](C(=O)O)C(C)C [SAG2X351–359] (H-FMIVSISLV-OH) : 8.74
